Data provenance: patent US20250332112A1

- experimental.details: Particle characteristics of LNPs containing luciferase mRNA and novel ionizable lipids
- Format: physicochemical
- experimental.context: Table 1; luciferase mRNA LNP 1.6:54.6:32.8:10.9 PEG2000-C-DMA:Ionizable lipid:Cholesterol:DSPC

{"columns": ["compound", "Final Product Z-avg (nm)"],
 "data": [
  ["CCCCCCCCCC(CC(=O)OCC(CCCCCC)CCCCCCCC)N(CCCN(C)C)S(=O)(=O)CCCCCCCC (stereo not drawn)", 71],
  ["CCCCCCCCCCCS(=O)(=O)N(CCCN(C)C)C(CCCCCCCCC)CC(=O)OCC(CCCCCC)CCCCCCCC (stereo not drawn)", 62],
  ["CCCCC/C=C\\CCCOC(=O)CC(CCCCCCCCC)N(CCCN(C)C)S(=O)(=O)CCCCCCCCCCC (stereo not drawn)", 72],
  ["CCCCCCCCCC(CC(=O)OCC(CCCCCC)CCCCCCCC)N(CCCN(C)C)S(=O)(=O)CCCC (stereo not drawn)", 61],
  ["CCCCCCCCCCOC(=O)CC(CCCCCCCCC)N(CCCN(C)C)S(=O)(=O)CC(CCCCCC)CCCCCCCC (stereo not drawn)", 61],
  ["CCCCC/C=C\\CCCC(CCC/C=C\\CCCCC)C(CCC/C=C\\CCCCC)OC(=O)CCCCN(C)C (stereo not drawn) [Compound 13-B43, reference compound]", 70]
]}
